Hey, just so you know, these numbers are from patent US20130266605A1.

tested.system: CD40L (Homo sapiens)
test.name: Octet Red label-free association/dissociation analysis
Type: binding
condition.set: base peptides; equilibrium dissociation constant; read-out: KD
property.label: pKd
// field semantics: pKd = negative decimal log of concentration (mol/L)

Return value of pKd for input LDLFGDFNGLPEGADRTEFYQHEGHWQNRMILGDSLQVMASLAEREGLRGKVQCIYFDPPYGIKFN [CD40L M9_763] , no commentary.
7.57
